- TARGET_OR_TEST_SYSTEM: NAD-dependent protein deacetylase sirtuin-1 (Homo sapiens, UniProt Q96EB6, I347A)
- Sequence (Q96EB6 2-747 I347A limits assumed): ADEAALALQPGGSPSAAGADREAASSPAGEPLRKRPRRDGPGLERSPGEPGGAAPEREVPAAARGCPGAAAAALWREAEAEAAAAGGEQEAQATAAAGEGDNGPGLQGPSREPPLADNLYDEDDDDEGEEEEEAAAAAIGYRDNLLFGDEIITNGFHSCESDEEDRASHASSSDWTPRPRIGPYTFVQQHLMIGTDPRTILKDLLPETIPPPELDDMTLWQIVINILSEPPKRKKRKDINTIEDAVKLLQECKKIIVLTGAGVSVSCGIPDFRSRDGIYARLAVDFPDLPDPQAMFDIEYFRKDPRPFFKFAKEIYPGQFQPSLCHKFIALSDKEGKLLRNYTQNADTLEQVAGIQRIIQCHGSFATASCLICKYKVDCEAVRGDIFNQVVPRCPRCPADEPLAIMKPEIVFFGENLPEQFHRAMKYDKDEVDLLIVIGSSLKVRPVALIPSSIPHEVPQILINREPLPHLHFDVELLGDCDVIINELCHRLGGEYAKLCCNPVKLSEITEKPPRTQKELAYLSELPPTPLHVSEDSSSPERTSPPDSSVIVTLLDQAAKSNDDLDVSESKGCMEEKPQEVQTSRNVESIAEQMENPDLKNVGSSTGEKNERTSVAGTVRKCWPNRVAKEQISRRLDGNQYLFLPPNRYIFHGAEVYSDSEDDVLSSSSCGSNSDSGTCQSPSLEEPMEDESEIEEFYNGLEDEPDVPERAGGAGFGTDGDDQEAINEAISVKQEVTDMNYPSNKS
- EXPERIMENT_DESCRIPTION: Inhibition of N-terminal hexa-His-tagged human SIRT1 I347A mutant (156 to 664 residues) expressed in Escherichia coli BL21 (DE3) assessed as dissociation equilibrium constant using Abz-GVLKacAYNO2GY-NH2 as substrate in presence of varying level of NAD+ by Lineweaver-burk plot analysis
MEASURED_METRIC: pKi
Interpret pKi as the negative base-10 log of the concentration measured in mol/L.

Entry COc1cc(C=C2C(=O)OC(c3ccccc3)OC2=O)cc(Br)c1O (stereo unspecified) has what pKi? 6.15

====

- TARGET_OR_TEST_SYSTEM: NAD-dependent protein deacetylase sirtuin-1 (Homo sapiens)
- EXPERIMENT_DESCRIPTION: Inhibition of N-terminal hexa-His-tagged human SIRT1 (156 to 664 residues) expressed in Escherichia coli BL21 (DE3) assessed as deacetylation of Abz-labeled acetyl peptide using Abz-GVLKacAYNO2GY-NH2 peptide as substrate incubated for 30 mins in presence of NAD+ by fluorescence microplate reader assay
- CONDITION_SET: read-out: IC50
Record form. Attribute: pIC50. Fill in for each entry.
Interpret pIC50 as the negative base-10 log of the concentration measured in mol/L.

Entry CCOc1cc(C=C2C(=O)OC(c3ccccc3)OC2=O)cc(Br)c1O (stereo not given) has what pIC50? 5.94

Entry O=C1OC(c2ccccc2)OC(=O)C1=Cc1ccc(O)cc1 (stereo not given) has what pIC50? 5.20

Entry COc1cc(C=C2C(=O)OC(c3ccccc3)OC2=O)c(Br)cc1O (stereo not given) has what pIC50? 5.45

Entry Nc1c(Br)cc(C=C2C(=O)OC(c3ccccc3)OC2=O)cc1Br (stereo not given) has what pIC50? 5.12

Entry COc1ccc(C=C2C(=O)OC(c3ccccc3)OC2=O)c(OC)c1OC (stereo not given) has what pIC50? 4.80

Entry COc1cc(C=C2C(=O)OC(c3ccccc3)OC2=O)cc(Br)c1O (stereo not given) has what pIC50? 5.88

Entry CC(C)Oc1cccc(C=C2C(=O)OC(c3ccccc3)OC2=O)c1 (stereo not given) has what pIC50? 4.85

Entry O=C1OC(c2ccccc2)OC(=O)C1=Cc1cc(Br)c(O)c(Br)c1 (stereo not given) has what pIC50? 6.15

Entry O=C1OC(c2ccccc2)OC(=O)C1=Cc1ccc(OCc2cccc(C(=O)O)c2)cc1 (stereo not given) has what pIC50? 5.00

Entry CCOc1cc(C=C2C(=O)OC(c3ccccc3)OC2=O)ccc1O (stereo not given) has what pIC50? 5.26
